Parameter: viability. Scope: all listed entries.
assay: reversal of MRP1-mediated doxorubicin resistance, pilot screen, H69AR cells, doxorubicin co-treatment (AID 601)
conditionSet: H69AR cells + 2 uM doxorubicin, CellTiter-Glo, 72 h; measured here: viability with 2 uM doxorubicin; at 10 µM; stronger effect = lower value

Before answering, review these 3 worked examples.
molecule	viability
COc1cccc(CN2CCN(C(=O)CC(C)C)CC2)c1	88.7%
CNC(=O)CC(C(=O)O)c1ccc(OC(C)C)cc1 (centres undefined)	85.7%
O=C(CCSc1nc(-c2ccco2)cc(C(F)(F)F)n1)Nc1ccc2c(c1)OCO2	88.5%

Request: Respond only with viability recorded for `O=C(Cn1cccc1)N1CCN(C(c2ccccc2)c2ccccc2)CC1`
Response: 95.9%
